Test system: ATP;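 also: ATP exposure 15 min at 22 °C before imaging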
Assay Comment: switch fluorescence ratio, 500 uM ATP over buffer (Cy3 cluster intensity, sum of 5 cycles each) (fold (ratio)); higher = stronger signal-on switching upon ATP binding; sequences stand for … in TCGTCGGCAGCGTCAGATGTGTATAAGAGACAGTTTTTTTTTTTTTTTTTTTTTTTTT…TC
Condition Description: aptamer strand: ATP DNA aptamer (quencher-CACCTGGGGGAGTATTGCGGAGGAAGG + anchor), 100 nM annealed; ATP concentration: 500 uM
Outcome Measure: switch fluorescence ratio
Give the figure only, with no unit attached.

Solved cases (3 shown):
[[record]]
sequence_code = "CATGAGTAGG"
reported_result = 0.979

[[record]]
sequence_code = "TTGGCGCCTG"
reported_result = 0.995

[[record]]
sequence_code = "AATTTGACAT"
reported_result = 1.03


Q: Fill in the blank: the reported switch fluorescence ratio of `CTGGTTCAGG` is ____.
Result: 1.03

Q: Fill in the blank: the reported switch fluorescence ratio of `TGTAAAGATT` is ____.
Result: 1.01

Q: Fill in the blank: the reported switch fluorescence ratio of `TCGGAACTCG` is ____.
Result: 0.982

====

System: ATP;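 also: ATP exposure 15 min at 22 °C before imaging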
Assay Comment: switch fluorescence ratio, 500 uM ATP over buffer (Cy3 cluster intensity, sum of 5 cycles each) (fold (ratio)); higher = stronger signal-on switching upon ATP binding; sequences stand for … in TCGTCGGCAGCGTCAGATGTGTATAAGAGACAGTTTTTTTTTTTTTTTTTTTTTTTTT…TC
Condition Description: aptamer strand: ATP DNA aptamer (quencher-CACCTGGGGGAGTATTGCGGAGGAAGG + anchor), 100 nM annealed; ATP concentration: 500 uM
The reader will find reported switch fluorescence ratio values listed item by item below.
Give the figure only, with no unit attached.

Solved cases (5 shown):
[[record]]
sequence_code = "GGGAGGGGGG"
reported_result = 0.994

[[record]]
sequence_code = "AGGGTTAGCA"
reported_result = 1.02

[[record]]
sequence_code = "AATGACAGGG"
reported_result = 0.988

[[record]]
sequence_code = "AAGGAAGCCG"
reported_result = 1.06

[[record]]
sequence_code = "TAAGGCTGAC"
reported_result = 1.15


Q: Fill in the blank: the reported switch fluorescence ratio of `AGGTTTCCGT` is ____.
Result: 1.02

====

Tested on: ATP;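 also: ATP exposure 15 min at 22 °C before imaging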
Assay Comment: switch fluorescence ratio, 500 uM ATP over buffer (Cy3 cluster intensity, sum of 5 cycles each) (fold (ratio)); higher = stronger signal-on switching upon ATP binding; sequences stand for … in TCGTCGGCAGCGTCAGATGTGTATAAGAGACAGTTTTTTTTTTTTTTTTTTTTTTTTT…TC
Condition Description: aptamer strand: ATP DNA aptamer (quencher-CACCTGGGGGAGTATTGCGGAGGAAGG + anchor), 100 nM annealed; ATP concentration: 500 uM
Outcome Measure: switch fluorescence ratio
Give the figure only, with no unit attached.

Solved cases (4 shown):
[[record]]
sequence_code = "TCAGGGTGAA"
reported_result = 1.02

[[record]]
sequence_code = "TGGTACCTTT"
reported_result = 1.04

[[record]]
sequence_code = "TGCCAATGGG"
reported_result = 1

[[record]]
sequence_code = "TGTTACTTAT"
reported_result = 1.05


Q: Fill in the blank: the reported switch fluorescence ratio of `GGTATTGCTT` is ____.
Result: 0.995

Q: Fill in the blank: the reported switch fluorescence ratio of `ATTAAATGGC` is ____.
Result: 1.02
